Every entry's value here was drawn from PubChem BioAssay (NCI).

- Tested on: M14 melanoma
- test-protocol: NCI-60 one-dose screen, 48 h
- run-parameters: 10 µM unless noted
About 83,000 compounds went through this panel and 20% of them were active in at least one assay; those are over-represented in the sample as a whole. The source made the active and inactive calls. The calls were made as follows: active = growth percent below 10; inactive = the rest.
Classes used: 1 for active, -1 for inactive

compound	assigned-category
O=C1COCCN1c1ccc(Nc2nc(Cl)nc(N3CCOCC3)n2)cc1	-1
C#CCC(C(=O)OCC)C(=O)OCC	-1
Cn1cc(-c2noc(C(=O)c3cn(C)c4ncccc34)n2)c2ccccc21	-1
CCc1ccc(NC(=O)N[C@@H](Cc2cc(F)cc(F)c2)C(=O)N[C@@H]2C(=O)N3C[C@H](O)C[C@H]3C(=O)N3CCOC[C@H]3C(=O)N[C@@H](C)C(=O)N3C[C@H](C)C[C@H]3C(=O)O[C@H]2C)cc1	-1
NC(=O)c1c(NC(=O)COC(=O)Cc2ccccc2F)sc2c1CCC2	-1
CN(Cc1cccc(C(F)(F)F)c1)C(=O)[C@@H](CC(=O)N1CCC(N2CCCCC2)CC1)N1C(=O)[C@@H](N2C(=O)OC[C@@H]2c2ccccc2)[C@H]1/C=C/c1ccccc1	-1
OC(c1ccc(Cl)cc1)(c1ccc(Cl)cc1)C(O)(c1ccc(Cl)cc1)c1ccc(Cl)cc1	-1
N#Cc1c(N2CCOCC2)nc(=S)[nH]c1-c1ccco1	-1
CSc1nc(=S)c2nc(SC)n(-c3ccccc3)c2[nH]1	-1
CC/C=C(\C)C(CCC)(CN=O)C(=O)OCC (stereo unspecified)	-1
C[C@H]1[C@H](C)CC[C@]2(C(=O)N3CCN(C)CC3)CC[C@]3(C)C(=CC[C@@H]4[C@@]5(C)C/C(=C/c6ccco6)C(=O)C(C)(C)[C@@H]5CC[C@]43C)[C@H]12	-1
CCOC(CNC(=O)c1cccc([N+](=O)[O-])c1)OCC	-1
O=C(NNc1ccc(-c2ccccc2)nn1)c1ccc(F)cc1	-1
Cn1ncc2c(Nc3ccc(O)cc3)nc(Cl)nc21	-1
C=C(C)[C@@H]1CC[C@]2(C)[C@H](C(=O)C=C3[C@@H]4C[C@](C)(C(=O)N5CCN(C)CC5)CC[C@]4(C)CC[C@]32C)[C@@]1(C)CCC#N	1
N#C/C(=C(/O)CCCO)c1nc2ccccc2c(=O)[nH]1	-1
O=C1NC(=O)c2cc([N+](=O)[O-])cc3cccc1c23	-1
CCOC(=O)C1=C(C(=O)c2ccc(Br)cc2)C(c2ccc(Br)cc2)NC(=S)N1 (stereo unspecified)	-1
CCCCOC(=O)c1c(C)[nH]c(/C=C2\N=C(c3ccc[nH]3)C=C2OC)c1C	1
C=CC1=C(C)C2=NC1=CC1=NC(=CC3=C(C)C4=C(O)C(C(=O)O)C(=C5NC(=C2)C(C)C5CCC(=O)O)C4=N3)C(CC)=C1C (stereo unspecified)	-1
Clc1ccc2nc(-c3ccc(-c4ccc(/C=N/NC5=NCCN5)cc4)s3)cn2c1	-1
O=C1CC(C(F)(F)F)Cc2nc3ccc(Br)cc3cc21 (stereo unspecified)	-1
CCOC(=O)Nc1ccc2c(c1)/C(=N\NC(=S)NC)c1ccccc1-2	-1
C[C@H]1[C@H](C)CC[C@]2(COC(=O)CCC(=O)O)CC[C@]3(C)C(=CC[C@@H]4[C@@]5(C)CCCNC(C)(C)[C@@H]5CC[C@]43C)[C@H]12	-1
Nc1nnc(CSc2nnc3n(Cc4ccccc4)c(=O)c4c5c(sc4n23)CCCC5)s1	-1
Cn1cc(-c2noc(-c3cn(C)c4ncccc34)n2)c2cc(Cl)ccc21	-1
NC(=O)c1cccc(-c2ccc(S(=O)(=O)Nc3ccc4c(c3)N(C(=O)C3CC3)CCC4)cc2)c1	-1
COc1ccc(/C=C(/C2=NCCN2)n2ccc3ccccc32)cc1	-1
CCOC(=O)/C(C#N)=C(\C)CCc1ccccc1	-1
COc1cc2c(=O)[nH]c3cc([N+](=O)[O-])ccc3c2cc1[N+](=O)[O-]	-1
C=C(C)[C@@H]1CC[C@]2(C(N)=O)CC[C@]3(C)[C@H](CC[C@@H]4[C@@]5(C)C/C(=C/c6cccnc6)[C@H](O)C(C)(C)[C@@H]5CC[C@]43C)[C@@H]12	-1
CO[C@H]1CC[C@@]2(C)C(=CC[C@H]3[C@@H]4C[C@H](O)C[C@@]4(C)CC[C@@H]32)C1	-1
COc1ccc2c3ccnc(C(F)(F)F)c3n(CCCCN)c2c1	-1
C=C(C)[C@@H]1CC[C@]2(C(=O)O)CC[C@]3(C)[C@H](CC[C@@H]4[C@@]5(C)C/C(=C/c6ccco6)C(=O)C(C)(C)[C@@H]5CC[C@]43C)[C@@H]12	1
CC(C)(C)c1cc(C(=O)Nc2ccccc2C(=O)NCCN)cc(C(C)(C)C)c1	1
CCC(Br)(CC)C(=O)c1ccc(OCC(=O)O)c(Cl)c1Cl	-1
